system: Male Sprague-Dawley rats; assay: Anti-arrhythmic activity in anesthetized rats (benzene/adrenaline challenge; VPB, heart rate, EKG intervals); assay type: in vivo, rat; details: isolated enantiomer as compared to respective racemate; EKG, anesthetized rats

{"columns": ["structure smiles", "QRS interval"],
 "data": [
  ["CCN(CC)CCOc1c(I)cc(C(=O)c2c(CC(=O)O[C@@H](C)C(C)C)oc3ccccc23)cc1I", "longer"],
  ["CCN(CC)CCOc1c(I)cc(C(=O)c2c(CC(=O)O[C@H](C)C(C)C)oc3ccccc23)cc1I", "longer"],
  ["CC[C@H](C)OC(=O)Cc1oc2ccccc2c1C(=O)c1cc(I)c(OCCN(CC)CC)c(I)c1", "longer"]
]}

----------
system: Male Sprague-Dawley rats; assay: Anti-arrhythmic activity in anesthetized rats (benzene/adrenaline challenge; VPB, heart rate, EKG intervals); assay type: in vivo, rat; conditions: time 180 min
property name: VPB-inhibiting activity at the end of the washout period

{"columns": ["structure smiles", "endpoint value"],
 "data": [
  ["CC[C@@H](C)OC(=O)Cc1oc2ccccc2c1C(=O)c1cc(I)c(OCCN(CC)CC)c(I)c1", "completely inactive"],
  ["CCN(CC)CCOc1c(I)cc(C(=O)c2c(CC(=O)O[C@@H](C)C(C)C)oc3ccccc23)cc1I", "completely inactive"]
]}
